Values from ChEMBL document CHEMBL3580565

assay.remarks: Cmax in Sprague-Dawley rat at 1 mg/kg, iv by LC/MS/MS analysis
Type: ADME, organism-based
Set-up: dose 1 mg/kg, route intravenous
condition.description: in vivo
metric: Cmax (ng/mL)
Quick note: give the figure in ng/mL, leave out the unit.

Problem: Would you kindly share the measured Cmax for Cc1noc(C)c1-c1cc2c(c3c1CCC3)NC(C)(C)C(=O)C2(C)C ?
Result: 633

###

target.or.system: Estrogen receptor (Homo sapiens)
Sequence (P03372 whole entry, looked up): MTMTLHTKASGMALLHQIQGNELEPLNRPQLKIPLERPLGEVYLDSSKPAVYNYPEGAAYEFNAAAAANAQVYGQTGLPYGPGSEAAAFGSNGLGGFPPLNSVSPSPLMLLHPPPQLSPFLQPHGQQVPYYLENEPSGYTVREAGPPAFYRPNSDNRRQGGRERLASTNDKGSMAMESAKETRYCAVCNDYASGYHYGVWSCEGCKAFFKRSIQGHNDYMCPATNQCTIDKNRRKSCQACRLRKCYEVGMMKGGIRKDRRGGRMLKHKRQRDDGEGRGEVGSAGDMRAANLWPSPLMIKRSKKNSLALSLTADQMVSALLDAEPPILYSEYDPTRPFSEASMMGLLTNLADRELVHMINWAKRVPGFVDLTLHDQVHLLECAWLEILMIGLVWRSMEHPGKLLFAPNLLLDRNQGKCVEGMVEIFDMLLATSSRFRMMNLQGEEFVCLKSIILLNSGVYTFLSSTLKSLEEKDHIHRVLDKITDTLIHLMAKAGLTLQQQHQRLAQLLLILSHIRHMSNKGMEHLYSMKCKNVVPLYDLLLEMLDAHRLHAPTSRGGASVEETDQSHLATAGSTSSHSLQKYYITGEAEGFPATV
assay.remarks: Displacement of fluormone ES2 from human recombinant estrogen receptor-alpha expressed in insect Sf9 cells after 120 mins by fluorescence polarization assay
metric: Ki

Problem: API: value(readout=Ki, system=Estrogen receptor (Homo sapiens)) for record Cc1noc(C)c1-c1cc2c(c3c1CCC3)NC(C)(C)C(=O)C2(C)C
Result: > 2300 nM
